Data provenance is patent US9266964.

Molecular target: T1, pKal catalytic domain Mutant 1 (human, UniProt P03952 391-638, limits assumed)
T1 construct: domain: catalytic domain; Expressed in Pichia pastoris, purified by IMAC; not shown: His tag fusion
T1 sequence (P03952 other isoform, or with tags, fused parts or gaps mutant limits assumed): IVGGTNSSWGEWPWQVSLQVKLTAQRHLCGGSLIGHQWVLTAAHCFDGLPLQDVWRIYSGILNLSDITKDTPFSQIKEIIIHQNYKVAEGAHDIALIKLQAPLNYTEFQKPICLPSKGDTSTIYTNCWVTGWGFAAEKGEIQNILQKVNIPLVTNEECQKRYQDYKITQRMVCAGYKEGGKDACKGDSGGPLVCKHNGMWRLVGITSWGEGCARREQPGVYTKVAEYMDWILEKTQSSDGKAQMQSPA
Experiment: apparent Ki (Ki,app), enzyme inhibition, pKal catalytic domain Mutant 1
ENDPOINT LABEL: pKi
Conceptually, pKi converts a concentration in mol/L into minus its log10.

// below: answered binders
[[record]]
binder = "M145-D11 (Fab, V domains shown, also called 559A-M145-D11 (sFab); 559A-M0145-D11) VH: EVQLLESGGGLVQPGGSLRLSCAASGFTFSHYRMSWVRQAPGKGLEWVSSIYPSGGRTVYADSVKGRFTISRDNSKNTLYLQMNSLRAEDTAVYYCAKDKFEWRLLFRGIGNDAFDIWGQGTMVTVSS VL: QSVLTQPPSVSVSPGQTASITCSGDKLGDKYTSWYQQRPGQSPVLVIYQDIKRPSGIPERFSGSNSGNTATLTISGTQAMDEADYYCQAWDSPNARVFGSGTKVTVL"
test_result = 9.64

[[record]]
binder = "X115-B07 (antibody, V domains shown, also called 559A-X115-B07; 559A-X0115-B07) VH: EVQLLESGGGLVQPGGSLRLSCAASGFTFSHYLMTWVRQAPGKGLEWVSYISPSGGHTIYADSVKGRFTISRDNSKNTLYLQMNSLRAEDTAVYYCAMVGQGIRGRSRTSYFAQWGQGTLVTVSS VL: EIVLTQSPGTLSLSPGERATLSCRTSQFVNSNYLAWYQQKPGQAPRLLIYGASSRATGIPDRFSGSGSGTDFTLTISRLEPEDFAVYYCQQSSRTPWTFGQGTKVEIK"
test_result = 8.33


Would you kindly look at the next entry?
Give me measured pKi, please, for this binder: DX-2922 (antibody, V domains shown, also called X101-A01; 559A-X0101-A01) VH: EVQLLESGGGLVQPGGSLRLSCAASGFTFSHYLMTWVRQAPGKGLEWVSYISPSGGHTIYADSVKGRFTISRDNSKNTLYLQMNSLRAEDTAVYYCARVARGIAARSRTSYFDYWGQGTLVTVSS VL: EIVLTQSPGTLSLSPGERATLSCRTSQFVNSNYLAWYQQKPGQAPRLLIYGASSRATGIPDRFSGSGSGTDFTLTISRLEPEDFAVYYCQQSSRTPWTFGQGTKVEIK
7.85
